Source listed as PubChem BioAssay (NCI).

System: HOP-92 NSCLC
Assay: NCI tumour cell line growth inhibition, 48 h
Observation Type: TGI

compound=c1ccc(-c2nnn(CCN3CCCCC3)n2)cc1 assayed_target="HOP-92 NSCLC" observation_type=TGI readout_value="> 100 µM"
compound=COC(=O)c1c(-c2ccc(Cl)cc2)cc2c3ccccc3n(C)c2c1C(=O)OC assayed_target="HOP-92 NSCLC" observation_type=TGI readout_value="> 100 µM"
compound=CC1=NN(C(=O)c2ccccc2O)C(=O)/C1=C/c1cccc([N+](=O)[O-])c1 assayed_target="HOP-92 NSCLC" observation_type=TGI readout_value="> 100 µM"
compound="NCCOCC(N)C(=O)O (stereo unspecified)" assayed_target="HOP-92 NSCLC" observation_type=TGI readout_value="> 100 µM"
compound="COC(=O)/C(=N\\NC(N)=S)C(C#N)c1ccccc1 (stereo unspecified)" assayed_target="HOP-92 NSCLC" observation_type=TGI readout_value="> 100 µM"

Need TGI of CN1CCN(c2nc(-c3ccncc3)nc3sc4c(c23)CCCCCC4)CC1 , thanks.
5.32 µM

Need TGI of O=C1C=CC(=O)c2c(Cl)ccc(O)c21 , thanks.
6.96 µM

Need TGI of CS(=O)(=O)NC12CCC(c3ccccc31)c1ccccc12 , thanks.
> 100 µM

Need TGI of C=[CH][Sn]([CH]=C)([O]c1cccc2cccnc12)[O]c1cccc2cccnc12 , thanks.
19.5 µM

Need TGI of COc1ccccc1NC(=O)C(CC(C(=O)Nc1ccccc1OC)/C(C)=N/Nc1ccc([N+](=O)[O-])cc1[N+](=O)[O-])/C(C)=N/Nc1ccc([N+](=O)[O-])cc1[N+](=O)[O-] (stereo unspecified) , thanks.
> 100 µM

Need TGI of COc1ccc(CCN2CCc3c(C)c(C#N)c4nc5ccccc5n4c32)cc1OC , thanks.
90.6 µM

Need TGI of CN(C)c1ccc(/C=C2\N=C(c3ccccc3)N(c3ccc4c(c3)Sc3cc(N5C(=O)/C(=C/c6ccc(N(C)C)cc6)N=C5c5ccccc5)ccc3N4)C2=O)cc1 , thanks.
35.1 µM

Need TGI of C/C(Nc1ccc(Cl)cc1Cl)=C1/CCOC1=O , thanks.
51.8 µM

Need TGI of CCN(CC)c1nc(N(C)C)c2ccccc2n1 , thanks.
> 100 µM

Need TGI of CN(C=O)/C=C/c1cc(O)ccc1O , thanks.
34.8 µM

Need TGI of CC(C)(C)C1CC[C@H](O)[C@H]([C@H](O)CC2CC(=O)N(c3ccccc3)C(=O)C2)C1 (stereo partly specified) , thanks.
> 100 µM

Need TGI of CCOc1cc(-c2ccc[nH]2)[nH]c1/C=C1\N=C(C)C(C(=O)OC)=C1C , thanks.
0.049 µM

Need TGI of Cc1nc(-n2nc(-c3ccccc3)cc2-c2ccccc2)sc1C(/C=C/c1ccc([N+](=O)[O-])cc1)=N/NC(=O)c1ccncc1 , thanks.
54.8 µM

Need TGI of Cc1nc2ccc(Cl)cc2c2c1CCN2c1ccccc1 , thanks.
24.1 µM

Need TGI of COc1c(C)c(C/C=C(\C)CC/C=C(\C)CCC=C(C)C)c(OC)c(OC)c1OC , thanks.
> 100 µM
